Biological target: DNA polymerase catalytic subunit (Human cytomegalovirus (strain AD169) (HHV-5) (Human herpesvirus 5), UniProt P08546)
Sequence (P08546 whole entry): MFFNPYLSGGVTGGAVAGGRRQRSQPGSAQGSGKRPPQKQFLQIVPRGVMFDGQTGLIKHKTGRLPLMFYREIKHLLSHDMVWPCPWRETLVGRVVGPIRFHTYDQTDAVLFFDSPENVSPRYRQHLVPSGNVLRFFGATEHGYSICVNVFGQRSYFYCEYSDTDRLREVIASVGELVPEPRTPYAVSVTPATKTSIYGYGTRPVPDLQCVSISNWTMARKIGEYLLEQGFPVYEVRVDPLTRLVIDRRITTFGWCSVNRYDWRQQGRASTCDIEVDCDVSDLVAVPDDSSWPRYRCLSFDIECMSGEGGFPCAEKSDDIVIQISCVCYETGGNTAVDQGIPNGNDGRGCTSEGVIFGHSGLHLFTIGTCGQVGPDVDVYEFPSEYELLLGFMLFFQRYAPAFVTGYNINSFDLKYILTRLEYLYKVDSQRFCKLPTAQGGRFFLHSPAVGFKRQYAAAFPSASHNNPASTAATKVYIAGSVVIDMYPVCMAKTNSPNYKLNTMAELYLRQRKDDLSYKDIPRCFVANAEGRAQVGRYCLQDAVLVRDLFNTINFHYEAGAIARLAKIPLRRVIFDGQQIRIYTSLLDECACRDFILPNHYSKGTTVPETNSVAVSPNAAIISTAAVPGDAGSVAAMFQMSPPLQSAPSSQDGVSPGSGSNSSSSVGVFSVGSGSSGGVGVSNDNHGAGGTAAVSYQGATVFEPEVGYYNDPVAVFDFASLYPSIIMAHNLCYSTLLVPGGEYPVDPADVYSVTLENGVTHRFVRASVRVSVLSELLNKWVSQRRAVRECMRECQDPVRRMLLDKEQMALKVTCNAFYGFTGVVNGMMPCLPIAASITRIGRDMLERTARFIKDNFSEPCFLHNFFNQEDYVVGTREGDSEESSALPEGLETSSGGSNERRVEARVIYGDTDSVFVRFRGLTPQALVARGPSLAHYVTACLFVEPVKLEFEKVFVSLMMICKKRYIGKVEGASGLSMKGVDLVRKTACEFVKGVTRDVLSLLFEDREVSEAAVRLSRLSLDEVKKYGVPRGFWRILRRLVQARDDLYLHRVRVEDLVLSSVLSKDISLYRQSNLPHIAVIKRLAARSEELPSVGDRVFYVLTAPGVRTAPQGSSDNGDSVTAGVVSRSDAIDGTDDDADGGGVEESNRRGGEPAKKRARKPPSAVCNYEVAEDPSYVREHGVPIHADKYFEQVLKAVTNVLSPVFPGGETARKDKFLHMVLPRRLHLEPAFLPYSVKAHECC
Assay: HCMV Polymerase Scintillation Proximity Assay: The assay conditions are the following: 10 mM HEPES pH 7.5, 25 mM KCl, 7.5 mM NaCl, 5 mM MgCl2, 0.2 mg BSA/mL, 1 mM TCEP, 1.5% glycerol, 2 μM dTTP, 90 nM 3H-dTTP (minor variations in concentration are possible due to specific activity of stock), 26 nM Poly(dA)/190 nM BioTEG-dT19; 5% DMSO. The assay volume is 30 μL. Each reagent is added at a 3× conc.: 10 μL a+10 μL b+10 μL c; a: compound diluted in 10 mM Hepes pH 7.5, 25 mM KCl, 5 mM MgCl2, 1 mM TCEP with 15% DMSO; b: enzyme (GST-UL54) in 10 mM Hepes pH 7.5, 25 mM KCl, 5 mM MgCl2, 22.5 mM NaCl, 4.5% Glycerol, 0.6 mg BSA/mL, 1 mM TCEP w/o DMSO (1 nM GST-UL54 is present in the assay); c: substrate in 10 mM Hepes pH 7.5, 25 mM KCl, 5 mM MgCl2, 1 mM TCEP, 6 μM dTTP, 270 nM 3H-dTTP, 78 nM Poly(dA)/570 nM BioTEG-dT19 w/o DMSO. To perform the assay, 10 μL enzyme solution is added to columns 2-12 and 14-24. The enzyme is substituted by the blank solution (b solution without enzyme) for columns 1 and 13 (blanks). The plate is centrifuged at 200×g for 30 sec. 10 μL of substrate solution is added to each well. The plate is centrifuged at 200×g for 30 sec. The plates are incubated at 37 °C. for 40 min. To stop the reaction, 25 μL of SPA beads (5 mg/mL in 0.5 M EDTA) are added and mixed by pipetting up and down. The plates are incubated at RT for at least 15 min. 35 μL of 5 M CsCl is added to the bottom of each well. TopSeal is applied to the plate and the plate is incubated at RT for at least 90 min prior to reading. The signal is read on TopCount plate reader (Perkin-Elmer) or equivalent.

# chemicalSmiles, units, IC50
measured = [
    ("CC1(C)CN(C(=O)Cn2c(=O)c(C(=O)NCc3ccc(Cl)c(C(F)(F)F)c3)cc3cccnc32)C1", "µM", 38),
    ("CC1(C)CN(C(=O)Cn2c(=O)c(C(=O)NCc3ccc(Cl)c(Cl)c3)cc3cccnc32)C1", "µM", 14),
    ("O=C(NCc1ccc(Cl)cc1)c1cc2cccnc2n(CC(=O)N2CCCOCC2)c1=O", "µM", 16),
]

====

Molecular target: DNA polymerase catalytic subunit (Human cytomegalovirus (strain AD169) (HHV-5) (Human herpesvirus 5), UniProt P08546)
Test: HCMV Polymerase LANCE TR-FRET Assay: The assay conditions are the following: 10 mM HEPES pH 7.5, 25 mM KCl, 7.5 mM NaCl, 5 mM MgCl2, 0.2 mg BSA/mL, 1 mM TCEP, 1.5% glycerol, 5% DMSO, 235 nM dATP, 350 nM dCTP, 350 nM dGTP, 235 nM dTTP, 12 nM biotin-16-dUTP, 23.5 nM Dig-primer/template, 2 nM GST-UL54. The assay volume is 10 μL. Each reagent is added as follow: 4 μL a+3 μL b+3 μL c; a: compound diluted in compound dilution buffer to obtain 12.5% DMSO; b: enzyme (GST-UL54) in 10 mM Hepes pH 7.5, 25 mM KCl, 5 mM MgCl2, 25 mM NaCl, 5% Glycerol, 0.67 mg BSA/mL, 1 mM TCEP w/o DMSO (2 nM GST-UL54 is present in the assay); c: substrate in 10 mM HEPES pH 7.5, 25 mM KCl, 5 mM MgCl2, 1 mM TCEP, 783 nM dATP, 1166 nM dCTP, 1166 nM dGTP, 783 nM dTTP, 40 nM biotin-16-dUTP, 78 nM Dig-primer (5'-/Dig/AGC TCG TTT AGT GAA CC-3')/template (5'-GAGGTCAAAACAGCGTGGATGGCGTCTCCAGGCGATCTGACGGTTCACTAAACGAGCT-3') w/o DMSO. The primer and template are annealed in 10 mM Tris-HCl pH 7.5, 50 mM NaCl at a respective concentration of 50 μM. They are incubated at 95 °C. for 5 min in a dry batch block. The block is removed from the dry bath and allowed to cool to RT. Aliquots are made and stored at −20 °C. To perform the assay, 3 μL of the enzyme solution is added to columns 2-12 and 14-24. The enzyme is substituted by the blank solution (b solution without enzyme) for columns 1 and 13 (blanks). The plate is centrifuged at 200×g for 30 sec. 3 μL of substrate solution is added to each well. The plate is centrifuged at 200×g for 30 sec. Plates are incubated at 37 °C. for 30 min. 5 μL of conjugate solution is added (25 mM Hepes pH 7.5, 0.1 M NaCl, 0.25% Tween-20, 1 mg/mL BSA, 12 mM EDTA, 24 nM Sreptavidin-APC, 342 ng/mL Anti-Dig-Europium). The plates are incubated at RT for at least 120 min. The signal is read on the Envision plate reader (Perkin-Elmer) or equivalent.
pIC50: −log10 of the molar value.
Entries and their pIC50 values follow.

# compound, pIC50
rows = [
    ("Cn1nccc1Cc1cnc2c(c1)cc(C(=O)NCc1ccc(Cl)cc1)c(=O)n2CC(=O)N1CC(C)(C)C1", 7.19),
    ("CC1(C)CN(C(=O)Cn2c(=O)c(C(=O)NCc3ccc(Cl)cc3)cc3cc(CN4CCNC(C(F)(F)F)C4)cnc32)C1 (configuration not stated)", 7.13),
    ("CS(=O)(=O)C1CN(C(=O)Cn2c(=O)c(C(=O)NCc3ccc(Cl)cc3)cc3cccnc32)C1", 4.77),
    ("CN(C(=O)Cn1c(=O)c(C(=O)NCc2ccc(Cl)cc2)cc2cccnc21)C1CC(O)C1 (configuration not stated)", 6.66),
    ("CC1CN(C(=O)Cn2c(=O)c(C(=O)NCc3ccc(Cl)cc3)cc3cc(OCC4(C#N)CC4)cnc32)C1", 6.77),
    ("CC1(C)CN(C(=O)Cn2c(=O)c(C(=O)NCc3ccc(Cl)cc3)cc3cc(C(=O)NCc4cnccn4)cnc32)C1", 7.19),
    ("COCCNc1ccnc2c1cc(C(=O)NCc1ccc(Cl)cc1)c(=O)n2CC(=O)N1CC(C)(C)C1", 6.70),
    ("CNc1ccc2cc(C(=O)NCc3ccc(Cl)cc3)c(=O)n(CC(=O)N3CC(C)(O)C3)c2n1", 6.92),
    ("CC1(C)CN(C(=O)Cn2c(=O)c(C(=O)NCc3ccc(Cl)cc3)cc3c(-c4cnc(N)nc4)ccnc32)C1", 7.15),
    ("CN(CC(=O)O)c1ccnc2c1cc(C(=O)NCc1ccc(Cl)cc1)c(=O)n2CC(=O)N1CC(C)(C)C1", 7.30),
    ("CN(CC(C)(C)CO)C(=O)Cn1c(=O)c(C(=O)NCc2ccc(Cl)cc2)cc2ccc(-c3cn[nH]c3)nc21", 6.00),
    ("Cc1cc(Nc2cnc3c(c2)cc(C(=O)NCc2ccc(Cl)cc2)c(=O)n3CC(=O)N2CC(C)(C)C2)n(C)n1", 6.74),
    ("CN(CC(C)(C)CO)C(=O)Cn1c(=O)c(C(=O)NCc2ccc(Cl)cc2)cc2ccc(NC3CC3)nc21", 6.01),
    ("Cc1noc(C2CCN(C(=O)Cn3c(=O)c(C(=O)NCc4ccc(Cl)cc4)cc4cccnc43)C2)n1 (configuration not stated)", 5.00),
    ("COc1cc(CNC(=O)c2cc3cc(-c4cn(C)cn4)cnc3n(CC(=O)N3CC(C)(F)C3)c2=O)ccc1Cl", 6.40),
    ("Cc1nc(-c2cnc3c(c2)cc(C(=O)NCc2ccc(Cl)cc2)c(=O)n3CC(=O)N2CC(C)(C)C2)cn1C", 6.89),
    ("Cn1cnc(-c2cnc3c(c2)cc(C(=O)NCc2ccc(Cl)cc2)c(=O)n3CC(=O)N2CC(C)(F)C2)c1", 6.92),
]
